Assay Readout: melting point

> print(dat)
                                    compound  measured.value
 1           CC(=O)CCN(CCN)c1nc2cc(Cl)ccc2o1          126 °C
 2             CCOC(=O)c1c(C(F)(F)F)nn(C)c1N   120 to 121 °C
 3   Nc1cc(C(F)(F)F)c([N+](=O)[O-])cc1C(=O)O          237 °C
 4  CN1CC(c2cc3ccccc3o2)CC1=O (stereo unspecified)           73 °C
 5              CCOC(=O)c1oc2ccc(Cl)cc2c1CBr   112 to 114 °C
 6  Cc1ccc2c3c(ccc2n1)OC[C@H](CNCCCc1csc2ccc(F)cc12)O3   117 to 120 °C
 7  COC(=O)c1ccc(-c2nnc(CSCCOc3ccc(Cl)cc3Cl)o2)cc1   148 to 152 °C
 8  Cc1ccc(C(O)c2nc3c(cc2C)CCCCC3)cc1 (stereo unspecified)   143 to 145 °C
 9  CC(=O)N[C@@H]1CN(C(=O)c2nn(C)c3ccccc23)C[C@@H]1C (relative stereo)   202 to 204 °C
10  COc1cccc(CN2C(=O)N(c3cnn(Cc4c(C)noc4C)c3)C(=O)C2(C)C)c1   107 to 108 °C
11                 O=C(O)c1cccc2c1oc1ccccc12   164 to 165 °C
